Where do the numbers come from? From patent US20250320312A1.

# TGT: BSA (UniProt P02769)
# Sequence (P02769 25-607 limits assumed): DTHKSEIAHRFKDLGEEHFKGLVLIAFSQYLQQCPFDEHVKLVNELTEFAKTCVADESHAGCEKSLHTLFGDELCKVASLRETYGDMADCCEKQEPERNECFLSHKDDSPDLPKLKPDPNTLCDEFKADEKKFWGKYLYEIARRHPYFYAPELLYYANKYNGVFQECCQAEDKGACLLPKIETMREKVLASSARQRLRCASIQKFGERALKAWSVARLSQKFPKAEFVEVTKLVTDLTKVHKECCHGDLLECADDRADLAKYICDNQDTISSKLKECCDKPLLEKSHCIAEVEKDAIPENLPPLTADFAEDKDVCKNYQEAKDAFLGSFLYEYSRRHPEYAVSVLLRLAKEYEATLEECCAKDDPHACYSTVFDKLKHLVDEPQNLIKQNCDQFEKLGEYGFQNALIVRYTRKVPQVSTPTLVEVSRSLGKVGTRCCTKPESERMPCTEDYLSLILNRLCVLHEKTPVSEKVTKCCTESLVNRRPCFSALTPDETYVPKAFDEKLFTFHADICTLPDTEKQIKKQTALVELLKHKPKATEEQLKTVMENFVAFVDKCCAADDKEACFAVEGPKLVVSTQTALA
# PROCEDURE_SUMMARY: scFv ELISA
ASSAY_ENDPOINT: OD450 (OD450)
Numbers only here, please. The scale is OD450.

| BINDER | OD450 (OD450) |
| --- | --- |
| PcOxP_DB01_C08 (scFv, V domains shown, scFv in periplasmic extract) VH: EVQLLESGGGLVQPGGSLRLSCAASGFTFSDGYMEWVRQAPGKGLEWVAASRNKANDYTTEYADSVKGRFTISRDNSKNTLYLQMNSLRAEDTAVYYCARDYYASSYWYFDVWGQGTLVTVSS VL: DIQMTQSPSSLSASVGDRVTITCRASESISSSKNKVHYLAWYQQKPGKAPKLLIYGASNRYYGVPSRFSGSGSGTDFTLTISSLQPEDFATYYCAQFYSYPLTFGGGTKVEIK | 0.1 |

Exercise: Using the record for PcOxP_DB03_A10 (scFv, V domains shown, scFv in periplasmic extract) VH: EVQLLESGGGLVQPGGSLRLSCAASGWTFSDFYMEWVRQAPGKGLEWVAASRNKANDYTTEYADSVKGRFTISRDNSKNTLYLQMNSLRAEDTAVYYCARDYYGSSYWYFDVWGQGTLVTVSS VL: DIVMTQSPDSLAVSLGERATINCTASESLYSSKHKVHYLAWYQQKPGQPPKLLIYGASQRYIGVPDRFSGSGSGTDFTLTISSLQAEDVAVYYCAQFYLYPLTFGGGTKVEIK , report its OD450.
Key: 0.06
